Biological target: FGFR2 (Homo sapiens)
Construct: purchased DiscoveRx Corporation
Sequence (P21802 22-821): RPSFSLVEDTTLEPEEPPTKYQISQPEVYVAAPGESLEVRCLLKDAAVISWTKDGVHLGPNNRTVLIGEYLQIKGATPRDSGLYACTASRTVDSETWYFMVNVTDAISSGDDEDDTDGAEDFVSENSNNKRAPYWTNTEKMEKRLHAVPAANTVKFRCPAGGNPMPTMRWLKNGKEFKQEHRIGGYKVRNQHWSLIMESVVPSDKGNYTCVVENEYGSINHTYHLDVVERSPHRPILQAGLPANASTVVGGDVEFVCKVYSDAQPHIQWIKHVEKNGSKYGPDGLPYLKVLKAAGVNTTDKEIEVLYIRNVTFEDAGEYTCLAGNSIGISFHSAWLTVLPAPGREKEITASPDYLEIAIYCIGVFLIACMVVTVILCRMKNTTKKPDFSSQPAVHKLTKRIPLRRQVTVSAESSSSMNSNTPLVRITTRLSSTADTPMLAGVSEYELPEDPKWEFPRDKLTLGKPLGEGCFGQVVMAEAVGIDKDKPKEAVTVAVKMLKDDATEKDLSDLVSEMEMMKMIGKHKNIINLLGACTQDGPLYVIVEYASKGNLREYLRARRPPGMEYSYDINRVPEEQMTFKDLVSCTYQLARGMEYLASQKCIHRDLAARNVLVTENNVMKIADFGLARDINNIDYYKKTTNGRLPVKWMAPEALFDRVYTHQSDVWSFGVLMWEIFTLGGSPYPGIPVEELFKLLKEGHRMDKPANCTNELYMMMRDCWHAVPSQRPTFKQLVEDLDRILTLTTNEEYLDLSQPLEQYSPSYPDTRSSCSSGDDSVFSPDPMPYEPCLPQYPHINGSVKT
Assay: Enzyme binding assay (KINOMEscan) FGFR2
Conditions: pKd = -log Kd (M), read-out: FGFR2_pKd (converted)
measureName: log10(Kd) (log10 of the value in M)
In plain terms, each number is the log10 of measured Kd in M.

Take a look at these entries with their results.
- COc1cc(OC)c(F)c(N(CCCNC(C)C)c2ccc3ncn(C4CCOCC4)c(=O)c3c2)c1: -8.00
- COc1cc(OC)c(F)c(N(CCO)c2ccc3ncn(-c4ccncc4)c(=O)c3c2)c1F: -8.60

Ask: I am curious: what log10(Kd) value has been reported for COc1cc(OC)c(F)c(N(Cc2ncc[nH]2)c2ccc3ncn(C4CCNCC4)c(=O)c3c2)c1 ?
Reply: -7.50

Ask: I am curious: what log10(Kd) value has been reported for COc1cc(OC)cc(N(CCO)c2ccc3ncn(-c4cccnc4)c(=O)c3c2)c1 ?
Reply: -6.30

Ask: I am curious: what log10(Kd) value has been reported for COc1cc(OC)cc(N(CCCO)c2ccc3ncn(C4CCOCC4)c(=O)c3c2)c1 ?
Reply: -6.30
